- tested.on: CYP2D6 (Homo sapiens)
- Sequence (P10635 whole entry): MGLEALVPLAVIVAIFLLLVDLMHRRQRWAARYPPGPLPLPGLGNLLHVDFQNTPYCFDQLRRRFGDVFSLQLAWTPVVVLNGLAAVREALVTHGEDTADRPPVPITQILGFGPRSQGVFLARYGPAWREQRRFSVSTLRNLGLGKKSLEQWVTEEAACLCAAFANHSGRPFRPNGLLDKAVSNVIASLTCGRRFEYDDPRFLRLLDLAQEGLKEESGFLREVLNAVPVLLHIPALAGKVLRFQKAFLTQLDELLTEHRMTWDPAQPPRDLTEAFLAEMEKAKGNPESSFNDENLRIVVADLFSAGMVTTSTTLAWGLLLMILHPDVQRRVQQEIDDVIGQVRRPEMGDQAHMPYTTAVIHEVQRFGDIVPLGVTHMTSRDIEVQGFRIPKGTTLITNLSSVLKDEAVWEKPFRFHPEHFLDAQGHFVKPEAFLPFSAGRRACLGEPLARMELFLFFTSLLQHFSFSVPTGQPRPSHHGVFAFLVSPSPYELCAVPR
- test.description: Inhibition of CYP2D6
- Format: ADME
quantity.measured: IC50

// query Specify measured IC50 for `C[C@@H]1CCCN1CCCOc1ccc(C(=O)CN2CCOCC2)cc1` .
// result > 30 µM

* * *

- test.description: Plasma protein binding in rat
- Assay type: ADME, cell-free
- cond: read-out: PPB
quantity.measured: fraction unbound

// query Specify measured fraction unbound for `C[C@@H]1CCCN1CCCOc1ccc(C(=O)CN2CCOCC2)cc1` .
// result > 0.8

* * *

- test.description: AUC in rat at 5 mg/kg, po
- Format: ADME, organism-based
- Design: dose 5 mg/kg, route oral
- cond: plasma
Give AUC for every item shown.
Answer with a number only, understood to be in ng·h/mL.

// query Specify measured AUC for `C[C@@H]1CCCN1CCCOc1ccc(C(=O)CN2CCC(F)(F)CC2)cc1` .
// result 266

// query Specify measured AUC for `C[C@@H]1CCCN1CCCOc1ccc(C(=O)CN2CCN(C(=O)c3ccccc3)CC2)cc1` .
// result 689

// query Specify measured AUC for `C[C@@H]1CCCN1CCCOc1ccc(C(=O)CN2CCOCC2)cc1` .
// result 81

// query Specify measured AUC for `COC(=O)N1CCN(CC(=O)c2ccc(OCCCN3CCC[C@H]3C)cc2)CC1` .
// result 619
